B1: RAD51 (parent)
chain: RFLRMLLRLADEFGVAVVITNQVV

Variants of: B1
Test: protein stability index of a GFP-peptide fusion (GPS, HEK-293T) (PSI 1-6); higher = more stable;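 also: lentivirally expressed fusions sorted by FACS into six bins by GFP to DsRed ratio, PSI derived from sequencing read proportions per bin multiplied by bin number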
Settings: c terminus: a fixed tail appended
readout_type: protein stability index

mutation: L6V
readout_type: protein stability index
reported_result: 2.54
//
mutation: D11R
readout_type: protein stability index
reported_result: 2.85
//
mutation: T20R
readout_type: protein stability index
reported_result: 2.34
//
mutation: A16K
readout_type: protein stability index
reported_result: 2.4
//
mutation: G14L
readout_type: protein stability index
reported_result: 3.4
//
mutation: V17E
readout_type: protein stability index
reported_result: 2.58
//
mutation: R4Q
readout_type: protein stability index
reported_result: 1.92
//
mutation: N21A
readout_type: protein stability index
reported_result: 2.52
//
mutation: L3A
readout_type: protein stability index
reported_result: 4.15
//
mutation: L7F
readout_type: protein stability index
reported_result: 2.04
//
mutation: M5C
readout_type: protein stability index
reported_result: 3.05
//
mutation: F2Y
readout_type: protein stability index
reported_result: 2.21
//
mutation: G14D
readout_type: protein stability index
reported_result: 2.97
//
mutation: M5I
readout_type: protein stability index
reported_result: 2.23
//
mutation: N21H
readout_type: protein stability index
reported_result: 1.43
